- System: Calu-3
- assay-overview: cell viability relative to DMSO; higher = less toxic
- measurement-context: 72 h; 10000 nM
value-kind: cell viability (%)
Give bare numbers, in %.

Please report cell viability for every entry that follows.
1. COc1ccccc1N1CCN(CCCCNC(=O)c2ccc(-c3ccc(C(C)=O)cc3)cc2)CC1
2. COc1ccc2[nH]c(C(=O)c3ccccc3)cc2c1
3. CC(=O)Oc1ccccc1C(=O)Nc1ncc([N+](=O)[O-])s1 [nitazoxanide]
4. C#C[C@]1(O)CC[C@H]2[C@@H]3CCC4=CC(=O)CC[C@@H]4[C@H]3CC[C@@]21C [Norethindrone (Norethisterone)]
5. CC(=O)S[C@@H]1CC2=CC(=O)CC[C@]2(C)[C@H]2CC[C@@]3(C)[C@@H](CC[C@@]34CCC(=O)O4)[C@H]12 [spironolactone]

Output:
[96.5, 56.2, 98.8, 99.9, 102]

Items follow; give cell viability for each.
1. Cc1ccc2c(c1)c1c(n2CCc2ccc(C)nc2)CCN(C)C1 [latrepirdine]
2. COc1ccncc1C(=O)NC(=O)Nc1ccc(-c2ccccc2)c(C(F)(F)F)c1 [S1P1-agonist-III]

Output:
95.4
91.1

Below are 4 compounds. Give each one its cell viability.
1. CC(C)[C@H]1c2ccc(F)cc2CC[C@@]1(CCN(C)CCCc1nc2ccccc2[nH]1)OC(=O)C1CC1 [NNC-55-0396]
2. Cc1noc(C)c1-c1cc(O)cc([C@@H](O)c2ccccc2)c1 [OXF-BD-02]
3. O=C1CS[C@@H](c2ccccc2Cl)c2cc(Cl)ccc2N1 (racemic)
4. Cc1cc2c(s1)Nc1ccccc1N=C2N1CCN(C)CC1 [olanzapine]

Output:
1. 2.2
2. 70.8
3. 105
4. 108

// each listed compound needs a value for cell viability
1. CC(C)(C)n1nc(-c2cccc3ccccc23)c2c(N)ncnc21 [1-naphthyl-PP1]
2. C[C@@H](NCc1cc(Br)cc2nc(O)c(O)nc12)P(=O)(O)O
3. O=C(O)CC[C@H]1CC[C@@](c2cc(F)ccc2F)(S(=O)(=O)c2ccc(Cl)cc2)CC1 [MK-0752]

Output:
1: 73; 2: 102; 3: 97.8

Provide the reported cell viability of each entry below, same order.
1. CCOC(=O)[C@H](CCc1ccccc1)N[C@@H](C)C(=O)N1C(=O)N(C)C[C@H]1C(=O)O [imidapril]
2. Cc1ccccc1/N=N/c1ccc(/N=N/c2c(O)ccc3ccccc23)c(C)c1 [sudan-IV]
3. COc1cc2c(NC3CCN(C(C)C)CC3)nc(C3CCCCC3)nc2cc1OCCCN1CCCC1 [UNC0638]
4. CC(=O)Nc1cccc(O)c1 [metacetamol]

Output:
96.8
95.2
14.4
96.9

For every item in the list below, what is its measured cell viability?
1. CC1=C(/C=C/C(=C/C=C/C(C)=C/C(=O)O)c2ccc(C)cc2)C(C)(C)CCC1
2. Nc1ccc(S(=O)(=O)c2ccc(N)cc2)cc1 [dapsone]

Output:
[99.3, 101]

###

- Tested on: Calu-3
- assay-overview: cell viability relative to DMSO; higher = less toxic
- measurement-context: 72 h; 10 nM
value-kind: cell viability
A complete answer gives the number followed by the unit.

molecule | value-kind | recorded-result
Cc1ccc(S(=O)(=O)NCl)cc1 [chloramine-T] | cell viability | 107%
Nc1ncnc2c1ncn2[C@@H]1O[C@H](COP(=O)(O)OP(=O)(O)OP(=O)(O)O)[C@@H](O)[C@H]1O [ADENOSINE TRIPHOSPHATE DISODIUM] | cell viability | 96.6%
CC(C)[C@H]1c2ccc(F)cc2CC[C@@]1(CCN(C)CCCc1nc2ccccc2[nH]1)OC(=O)C1CC1 [NNC-55-0396] | cell viability | 105%
CO[C@H]1C[C@@H]2CC[C@@H](C)[C@@](O)(O2)C(=O)C(=O)N2CCCC[C@H]2C(=O)O[C@H]([C@H](C)C[C@@H]2CC[C@@H](O)[C@H](OC)C2)CC(=O)[C@H](C)/C=C(\C)[C@@H](O)[C@@H](OC)C(=O)[C@H](C)C[C@H](C)/C=C/C=C/C=C/1C [sirolimus] | cell viability | 42.2%

Fill in cell viability for each of the 6 molecules listed.
1. O=c1[nH]c(=O)n([C@H]2C[C@H](O)[C@@H](CO)O2)cc1C(F)(F)F [trifluridine]
2. CCOc1ccn(-c2ccc(F)cc2)c(=O)c1C(=O)Nc1ccc(Oc2ccnc(N)c2Cl)c(F)c1
3. CN(C)CCN1C(=O)c2cccc3cc(N)cc(c23)C1=O [amonafide]
4. C[C@@H]([C@H](O)c1ccc(O)cc1)N1CCC(Cc2ccccc2)CC1 (racemic) [ifenprodil]
5. CCOC(=O)[C@H](CCc1ccccc1)N[C@@H](C)C(=O)N1C(=O)N(C)C[C@H]1C(=O)O [imidapril]
6. CCC(=O)NO [ZAMI-633]

Output:
1: 121%; 2: 103%; 3: 96.2%; 4: 96.5%; 5: 96.4%; 6: 102%

Please supply cell viability for each of the following items, keeping them in order.
1. CCN(CC)CCOCCOC(=O)C1(c2ccccc2)CCCC1 [carbetapentane]
2. O=NO [sodium-nitrite]
3. O=C(O)COc1ccc(/C=C2\SC(=O)NC2=O)cc1 [TCS-3035]
4. CC(=O)S[C@@H]1CC2=CC(=O)CC[C@]2(C)[C@H]2CC[C@@]3(C)[C@@H](CC[C@@]34CCC(=O)O4)[C@H]12 [spironolactone]
5. CCC(CO)(C(=O)OC1CC2CCC(C1)[N+]2(C)C)c1ccccc1 (stereo not given) [troventol]

Output:
["93.8%", "100%", "97.6%", "95.4%", "94.6%"]
